This collection of values is drawn from patent US20250059282A1.

Target: T1, Human PD-L1-HIS (human, UniProt Q9NZQ7 19-238)
T1 construct: also called HIS-tagged monovalent PD-L1; His-tagged human PD-L1; not shown: His tag
T1 sequence (Q9NZQ7 19-238 limits assumed): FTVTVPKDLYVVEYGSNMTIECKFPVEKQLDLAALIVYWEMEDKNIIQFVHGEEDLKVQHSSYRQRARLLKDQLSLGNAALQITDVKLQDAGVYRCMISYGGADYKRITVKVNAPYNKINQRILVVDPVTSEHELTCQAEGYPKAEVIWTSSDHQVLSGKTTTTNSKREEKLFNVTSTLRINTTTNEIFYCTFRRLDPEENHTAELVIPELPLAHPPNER
Assay: ForteBio, IgG, monovalent
# reported pKd; entries follow
Quick note: pKd means taking -log10 of the concentration in moles per liter.

Below are worked cases with known answers.
BiPDL3-34 (antibody, V domains shown, IgG; also called ADI-37468; 37468) VH: QVQLQQWGAGLLKPSETLSLTCAVYGGSLSGYPWSWIRQPPGKGLEWIGETDVSGWTDYNPSLKSRVTISVDTSKNQFSLKLSSVTAADTAVYYCARDGRRMGTPSFDIWGQGTMVTVSS VL: DIQMTQSPSSVSASVGDRVTITCRASQDISSFLAWYQQKPGKAPKLLIYAASSLQDGVPSRFSGSGSGTDFTLTISSLQPEDFATYYCQKSVYFPPTFGGGTKVEIK: 7.75
BiPDL3-24 (antibody, V domains shown, IgG; also called ADI-37465; 37465) VH: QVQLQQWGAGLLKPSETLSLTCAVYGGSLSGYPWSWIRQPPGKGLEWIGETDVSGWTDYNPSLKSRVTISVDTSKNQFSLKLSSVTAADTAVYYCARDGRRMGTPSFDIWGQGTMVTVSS VL: DIQMTQSPSSVSASVGDRVTITCRASQGISNFLAWYQQKPGKAPKLLIYAASSLQSGVPSRFSGSGSGTDFTLTISSLQPEDFATYYCQKAVYFPPTFGGGTKVEIK: 7.87
BiPDL3-14 (antibody, V domains shown, IgG; also called ADI-37464; 37464) VH: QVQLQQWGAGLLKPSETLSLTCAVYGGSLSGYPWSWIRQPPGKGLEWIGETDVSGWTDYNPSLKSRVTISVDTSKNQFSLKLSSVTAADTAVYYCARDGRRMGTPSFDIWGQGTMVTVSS VL: DIQMTQSPSSVSASVGDRVTITCRASQGINSFLAWYQQKPGKAPKLLIYAASSLNSGVPSRFSGSGSGTDFTLTISSLQPEDFATYYCQKAVYFPPTFGGGTKVEIK: 8.41

--- query ---
In: Record request: pKd value, item BiPDL3-44 (antibody, V domains shown, IgG; also called ADI-37475; 37475) VH: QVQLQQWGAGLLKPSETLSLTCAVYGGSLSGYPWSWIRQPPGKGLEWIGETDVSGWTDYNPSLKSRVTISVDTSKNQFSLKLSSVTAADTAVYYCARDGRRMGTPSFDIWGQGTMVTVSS VL: DIQMTQSPSSVSASVGDRVTITCRASQGISTFLAWYQQKPGKAPKLLIYAASALHSGVPSRFSGSGSGTDFTLTISSLQPEDFATYYCQRAVYFPPTFGGGTKVEIK
Out: 7.52
